Biological target: HLA-B*46:01
Experiment: IEDB peptide-MHC binding, purified MHC/direct/fluorescence; filed as Kd, often an IC50 or EC50 that approximates it; bounds were set here for any values at or beyond the usual limits of such assays
Conditions: source organism: Listeria monocytogenes
Observed property: Kd

1) EIEIEKNKK    ≥ 20 µM

----------
Molecular target: HLA-A*23:01
Assay: IEDB peptide-MHC binding, purified MHC/competitive/radioactivity; filed as Kd, often an IC50 or EC50 that approximates it; bounds were set here for any values at or beyond the usual limits of such assays
Settings: source organism: Dengue virus 3 Martinique/1243/1999
pKd: −log10 of the molar value.
Observed property: pKd

1) NVWEVEDYGF    6.76

----------
Target: HLA-B*58:01
Experiment: IEDB peptide-MHC binding, purified MHC/direct/fluorescence; filed as Kd, often an IC50 or EC50 that approximates it; bounds were set here for any values at or beyond the usual limits of such assays
Conditions: source organism: Pseudomonas aeruginosa
pKd: −log10 of the molar value.
The entries below are paired with their reported pKd.
Observed property: pKd

1) ILGRYLPEF    6.84
2) KGGEAQFLV    6.13

----------
Biological target: HLA-B*40:01
Test: IEDB peptide-MHC binding, purified MHC/direct/fluorescence; filed as Kd, often an IC50 or EC50 that approximates it; bounds were set here for any values at or beyond the usual limits of such assays
Settings: source organism: Escherichia coli
Observed property: Kd (nM)

1. AEMRETHWL    6.21

----------
Molecular target: HLA-C*12:03
Experiment: IEDB peptide-MHC binding, purified MHC/direct/fluorescence; filed as Kd, often an IC50 or EC50 that approximates it; bounds were set here for any values at or beyond the usual limits of such assays
Details: source organism: Tetraodon nigroviridis
Observed property: Kd

1) NTFKFGVIY    ≤ 1 nM

----------
Target: HLA-A*31:01
Assay: IEDB peptide-MHC binding, purified MHC/direct/fluorescence; filed as Kd, often an IC50 or EC50 that approximates it; bounds were set here for any values at or beyond the usual limits of such assays
Settings: source organism: Vibrio cholerae
Observed property: Kd

1. RPRIRLSAP    ≥ 20 µM

----------
Target: HLA-A*31:01
Assay: IEDB peptide-MHC binding, purified MHC/competitive/radioactivity; filed as Kd, often an IC50 or EC50 that approximates it; bounds were set here for any values at or beyond the usual limits of such assays
Conditions: source organism: Mammarenavirus whitewaterense
Observed property: Kd (µM)

1. SFKDQSKYCH    1.16

----------
Molecular target: HLA-B*35:01
Assay: IEDB peptide-MHC binding, purified MHC/direct/fluorescence; filed as Kd, often an IC50 or EC50 that approximates it; bounds were set here for any values at or beyond the usual limits of such assays
Details: source organism: Vibrio vulnificus
pKd: −log10 of the molar value.
Observed property: pKd

1. NGYRWQHQI    6.07

----------
Molecular target: HLA-B*27:05
Experiment: IEDB peptide-MHC binding, purified MHC/direct/fluorescence; filed as Kd, often an IC50 or EC50 that approximates it; bounds were set here for any values at or beyond the usual limits of such assays
Settings: source organism: Escherichia coli O157:H7
Observed property: Kd

1. IAIPAHVRL    ≥ 20 µM

----------
Target: HLA-C*15:02
Experiment: IEDB peptide-MHC binding, purified MHC/direct/fluorescence; filed as Kd, often an IC50 or EC50 that approximates it; bounds were set here for any values at or beyond the usual limits of such assays
Conditions: source organism: Homo sapiens
Observed property: Kd (µM)

1. HMMAVTLFY    4.72

----------
Target: HLA-A*01:01
Test: IEDB peptide-MHC binding, purified MHC/direct/fluorescence; filed as Kd, often an IC50 or EC50 that approximates it; bounds were set here for any values at or beyond the usual limits of such assays
Conditions: source organism: Rickettsia australis
pKd: −log10 of the molar value.
Observed property: pKd

1. ATYGTAVNK    ≤ 4.70

----------
Target: HLA-A*68:02
Test: IEDB peptide-MHC binding, purified MHC/competitive/fluorescence; filed as Kd, often an IC50 or EC50 that approximates it; bounds were set here for any values at or beyond the usual limits of such assays
Details: source organism: Human immunodeficiency virus 1
Observed property: Kd

1) EELKSLFNTV    326 nM

----------
Biological target: HLA-A*11:01
Assay: IEDB peptide-MHC binding, purified MHC/direct/fluorescence; filed as Kd, often an IC50 or EC50 that approximates it; bounds were set here for any values at or beyond the usual limits of such assays
Conditions: source organism: Rickettsia australis
Observed property: Kd

1) ATYGTAVNK    29.6 nM

----------
Molecular target: HLA-B*58:01
Assay: IEDB peptide-MHC binding, purified MHC/direct/fluorescence; filed as Kd, often an IC50 or EC50 that approximates it; bounds were set here for any values at or beyond the usual limits of such assays
Settings: source organism: Pseudomonas putida
pKd: −log10 of the molar value.
Observed property: pKd

1. RVWRGEQGK    ≤ 4.70

----------
Target: HLA-C*05:01
Experiment: IEDB peptide-MHC binding, purified MHC/direct/fluorescence; filed as Kd, often an IC50 or EC50 that approximates it; bounds were set here for any values at or beyond the usual limits of such assays
Conditions: source organism: Salmonella enterica subsp. enterica serovar Typhi str. CT18
Observed property: Kd (nM)

1) LSEEANWAF    5

----------
Target: HLA-A*26:03
Assay: IEDB peptide-MHC binding, purified MHC/direct/fluorescence; filed as Kd, often an IC50 or EC50 that approximates it; bounds were set here for any values at or beyond the usual limits of such assays
Details: source organism: Variola virus
pKd: −log10 of the molar value.
Observed property: pKd

1) EYYFRNEVF    ≤ 4.70

----------
Biological target: HLA-C*12:03
Test: IEDB peptide-MHC binding, purified MHC/direct/fluorescence; filed as Kd, often an IC50 or EC50 that approximates it; bounds were set here for any values at or beyond the usual limits of such assays
Settings: source organism: Homo sapiens
Observed property: Kd (µM)

1. LVMAPRTVL    0.102

----------
Molecular target: HLA-B*18:01
Assay: IEDB peptide-MHC binding, purified MHC/direct/fluorescence; filed as Kd, often an IC50 or EC50 that approximates it; bounds were set here for any values at or beyond the usual limits of such assays
Conditions: source organism: Listeria monocytogenes
pKd: −log10 of the molar value.
Observed property: pKd

1. EIEIEKNKK    ≤ 4.70

----------
Target: HLA-B*15:17
Assay: IEDB peptide-MHC binding, purified MHC/competitive/fluorescence; filed as Kd, often an IC50 or EC50 that approximates it; bounds were set here for any values at or beyond the usual limits of such assays
Conditions: source organism: Orthomarburgvirus marburgense
pKd: −log10 of the molar value.
Observed property: pKd

1) YHLGGIEGL    ≤ 4.70

----------
Biological target: HLA-B*40:01
Test: IEDB peptide-MHC binding, purified MHC/competitive/radioactivity; filed as Kd, often an IC50 or EC50 that approximates it; bounds were set here for any values at or beyond the usual limits of such assays
Conditions: source organism: Dengue virus 2 Jamaica/1409/1983
pKd: −log10 of the molar value.
Observed property: pKd

1. CETCVYNMM    7.28
2. SEMIIPKNFA    5.07
3. REEEEAGVL    8.49

----------
Target: HLA-A*26:03
Test: IEDB peptide-MHC binding, purified MHC/competitive/fluorescence; filed as Kd, often an IC50 or EC50 that approximates it; bounds were set here for any values at or beyond the usual limits of such assays
Conditions: source organism: Coxiella burnetii Dugway 5J108-111
Observed property: Kd

1. IIGLLKIFR    ≥ 20 µM

----------
Target: HLA-B*51:01
Assay: IEDB peptide-MHC binding, purified MHC/competitive/fluorescence; filed as Kd, often an IC50 or EC50 that approximates it; bounds were set here for any values at or beyond the usual limits of such assays
Conditions: source organism: Bacillus anthracis str. A2012
Observed property: Kd

1. KKNHWFILK    ≥ 20 µM

----------
Molecular target: HLA-A*33:01
Assay: IEDB peptide-MHC binding, purified MHC/competitive/radioactivity; filed as Kd, often an IC50 or EC50 that approximates it; bounds were set here for any values at or beyond the usual limits of such assays
Settings: source organism: Vaccinia virus WR
pKd: −log10 of the molar value.
Give Criterion met when the value for pKd is at least 6. Give Criterion not met when it is less.

1) YLSDSDNIK    Criterion not met
2) KSCICYGSY    Criterion met
3) PIGMQFDKVY    Criterion not met
4) KFRPGSLIY    Criterion not met
5) YIAVANCVR    Criterion met
6) DVSLIIEYK    Criterion met
7) DSEPISILDR    Criterion not met
8) LTDTIESAK    Criterion met
9) FFTELENKK    Criterion not met
10) KTYIDVNEEY    Criterion not met
11) EAVYGNIKHK    Criterion not met
12) DMQKFTILEY    Criterion not met
13) LSSIKSKSR    Criterion not met
14) KTNDINVRR    Criterion not met
15) VTTKDYFSFK    Criterion not met
16) IQLDEKSSIK    Criterion not met
17) TVHKLTQDEK    Criterion not met
18) IFMRDWNSKY    Criterion not met
19) LITLILSNK    Criterion not met
20) ELTTVFIKY    Criterion not met
21) LVTRKCPQK    Criterion not met
22) LLMHLVSLY    Criterion not met
23) RSSPPIPMSR    Criterion not met
24) LLTDTIESAK    Criterion not met
25) ETITEKTFK    Criterion met
26) KSIENKHQRR    Criterion not met
27) KIIETYLGR    Criterion not met
28) FSGKSTELIR    Criterion not met
29) NSTTDAEACY    Criterion not met
30) TSCSKNEAEK    Criterion not met
31) YSGLTPEQK    Criterion not met
32) SAGAGVLDK    Criterion not met
33) KMLTFDVFR    Criterion met
34) DTIVSRSSR    Criterion met
35) LFSTSAADIK    Criterion not met
36) IPYLRNYMVI    Criterion not met
37) KSQAKKPEVR    Criterion not met
38) LVKESMASLK    Criterion met
39) ISIIVLFQR    Criterion met
40) LIIYYQLAGY    Criterion not met
41) VIDKAKVMGR    Criterion not met
42) GLCAHILLY    Criterion not met
43) ILNKIVQLPK    Criterion not met
44) TVVRDFENY    Criterion not met
45) NIKPSKENR    Criterion met
46) ISELSRLRY    Criterion not met
47) QMAGVEVRY    Criterion not met
48) KQLCYCPASK    Criterion not met
49) TIANSNIIK    Criterion not met
50) NSTCYVFGLY    Criterion not met
51) SMRYQSLIPR    Criterion met
52) ISQFSYKELY    Criterion not met

Values were extracted from the Immune Epitope Database (IEDB).
